Values compiled from ChEMBL document CHEMBL4513216.

Listed next: entries and their corresponding INHIBITION.
# System: Plasmodium berghei
# Assay Text: Screen against P. berghei liver stage (PbLuc), transformed with Luciferase, at 10uM
# Format: functional, HepG2
# Test Parameters: tested at 10 uM
The whole screen tested about 69,000 compounds, of which about 8,600 (12%) showed an effect of 50% or more. The entries come from a sample that favours strong results as a whole.
Measured Property: INHIBITION (%)

>>> print(df.to_string())
                                   compound       target_entity  measured_property  recorded_result
0  CNC(=O)c1cn[nH]c1C1CCN(Cc2cccc(C)c2OC)C1 (centres undefined)  Plasmodium berghei         INHIBITION             6.32
1   Cc1nc(NC(=O)CNC(=O)c2c(F)cccc2Cl)n[nH]1  Plasmodium berghei         INHIBITION            -8.69
2       CC(=O)N1CCC(c2cncc(Oc3ccccc3)n2)CC1  Plasmodium berghei         INHIBITION             41.5
3                    Cn1ncnc1NCc1ccc(Br)cc1  Plasmodium berghei         INHIBITION             20.9
4      CN(Cc1nnc(C2CC2)o1)Cc1ccccc1N1CCOCC1  Plasmodium berghei         INHIBITION            20.19
5  Cc1cc(C)c(CNCC(O)c2ccc(F)c(F)c2)c(C)c1 (centres undefined)  Plasmodium berghei         INHIBITION            -20.3
6                Cc1ncnc2c1CCN(Cc1nccs1)CC2  Plasmodium berghei         INHIBITION             8.85
7  Cc1cc(Nc2ccc(F)cn2)cc(C2CCCN2)n1 (centres undefined)  Plasmodium berghei         INHIBITION             34.9
8  Cn1cc(S(=O)(=O)N(Cc2ccc(F)cc2F)C2CC2)cc1C(N)=O  Plasmodium berghei         INHIBITION             40.9
